- TARGET DESC: Mtb Pks13-TE domain (wild-type) (Mycobacterium tuberculosis)
- EXPERIMENT SUMMARY: biochemical
- Type: biochemical
- CONDITION LABEL: Pks13-TE, 20 μM 4-MUH; read-out: IC50
Reported IC50 by item:

> print(dat)
                                   molecule      val
1  CNC(=O)c1c(-c2ccccc2)oc2ccc(O)c(CCN3CCCCC3CCO)c12 (centres unmarked) [compound 156]  > 40 µM

QUERY: Request body: readout IC50, system Mtb Pks13-TE domain (wild-type) (Mycobacterium tuberculosis), query CNC(=O)c1c(-c2ccccc2)oc2ccc(O)c(CCCNCC(C)c3ncco3)c12 (centres unmarked) [compound 196] . Return the value.
RESULT: > 20 µM

QUERY: Request body: readout IC50, system Mtb Pks13-TE domain (wild-type) (Mycobacterium tuberculosis), query CCNC(=O)c1c(-c2ccccc2)oc2ccc(O)c(CN3CCCCC3)c12 [compound 18] . Return the value.
RESULT: 0.36 µM

QUERY: Request body: readout IC50, system Mtb Pks13-TE domain (wild-type) (Mycobacterium tuberculosis), query CCOC(=O)c1c(-c2ccccc2)oc2ccc(O)c(CCN3CCCOC3)c12 [compound 193] . Return the value.
RESULT: 5 µM

QUERY: Request body: readout IC50, system Mtb Pks13-TE domain (wild-type) (Mycobacterium tuberculosis), query CNC(=O)c1c(-c2ccccc2)oc2ccc(O)c(CCNCC3CCCO3)c12 (centres unmarked) [compound 252] . Return the value.
RESULT: 1.6 µM

QUERY: Request body: readout IC50, system Mtb Pks13-TE domain (wild-type) (Mycobacterium tuberculosis), query CCOC(=O)c1c(-c2ccccc2)oc2cc(OC)cc(CN3CCCCC3)c12 [compound 37] . Return the value.
RESULT: 29 µM

QUERY: Request body: readout IC50, system Mtb Pks13-TE domain (wild-type) (Mycobacterium tuberculosis), query CCOC(=O)c1c(-c2ccccc2)oc2ccc(O)c(CCCN3CCC(CCCO)C3)c12 (centres unmarked) [compound 162] . Return the value.
RESULT: 2.7 µM

QUERY: Request body: readout IC50, system Mtb Pks13-TE domain (wild-type) (Mycobacterium tuberculosis), query CCOC(=O)c1c(-c2ccccc2)oc2cc(OC)cc(CNC(C)C)c12 [compound 72] . Return the value.
RESULT: > 10 µM

----------
- Test system: human dermal fibroblast (HDF) cells
- CONDITION LABEL: human, 48 h
Reported Non-Toxic Concentration by item:
Please give a number only; it is taken to be in µM.

> print(dat)
                           substance.smiles           endpoint.label  val
1  CNC(=O)c1c(-c2ccc(O)c(F)c2)oc2ccc(O)c(CN3CCCCC3)c12  Non-Toxic Concentration   50

QUERY: Request the reported Non-Toxic Concentration associated with `CCOC(=O)c1c(-c2ccccc2)oc2ccc(O)c(CCN3CCCC3)c12`
RESULT: 1.56

QUERY: Request the reported Non-Toxic Concentration associated with `CCOC(=O)c1c(-c2ccc(F)cc2)oc2cc(O)cc(CCNC(C)C)c12`
RESULT: 12.5

QUERY: Request the reported Non-Toxic Concentration associated with `CNC(=O)c1c(-c2cc(F)c(O)c(F)c2)oc2ccc(O)c(CN3CCCCC3)c12`
RESULT: 100

----------
- TARGET DESC: Mtb Pks13-TE domain (wild-type) (Mycobacterium tuberculosis, UniProt I6X8D2)
- Sequence (I6X8D2 1451-1733): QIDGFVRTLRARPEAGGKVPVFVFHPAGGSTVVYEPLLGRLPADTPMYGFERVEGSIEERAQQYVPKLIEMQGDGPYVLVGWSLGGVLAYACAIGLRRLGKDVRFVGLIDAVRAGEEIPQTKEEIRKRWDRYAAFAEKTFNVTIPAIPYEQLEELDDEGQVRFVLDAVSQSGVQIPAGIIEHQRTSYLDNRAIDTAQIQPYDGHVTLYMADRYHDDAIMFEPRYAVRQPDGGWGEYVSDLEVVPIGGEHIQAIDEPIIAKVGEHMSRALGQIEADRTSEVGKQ
- EXPERIMENT SUMMARY: biochemical
- Type: biochemical
- CONDITION LABEL: Pks13-TE, 20 μM 4-MUH; read-out: IC50
Checkbox rule: IC50 lower than 2 µM = 1; IC50 not lower than 2 µM = 0.

Illustrative cases are given below, each with its answer.
> print(dat)
                                   molecule  category.label
1  CCOC(=O)c1c(-c2ccc(F)cc2)oc2cc(O)cc(CCNCC(O)CO)c12 (stereo not shown)               0
2  CCOC(=O)c1c(-c2ccccc2)oc2ccc(O)c(CN3CCCC(C)C3)c12 (stereo not shown)               1
3  CCOC(=O)c1c(-c2ccc(F)cc2)oc2cc(O)cc(CCNC(=O)C3CCCN3)c12 (stereo not shown)               0
4  CNC(=O)c1c(-c2ccc(O)cc2)oc2cc(O)cc(CN3CCCCC3)c12               1

QUERY: Criterion: IC50 strictly below 2 µM. Is it met by `CNC(=O)c1c(-c2ccccc2)oc2ccc(O)c(CCN3CCN(CCO)CC3)c12` ?
RESULT: 0

QUERY: Criterion: IC50 strictly below 2 µM. Is it met by `CCOC(=O)c1c(-c2ccccc2)oc2ccc(O)c(CCN3CCCC3)c12` ?
RESULT: 0

QUERY: Criterion: IC50 strictly below 2 µM. Is it met by CNC(=O)c1c(-c2ccccc2)oc2ccc(O)c(CCN3CCCCC3CO)c12 (stereo not shown) ?
RESULT: 0

QUERY: Criterion: IC50 strictly below 2 µM. Is it met by `CNC(=O)c1c(-c2ccccc2)oc2ccc(O)c(CCN3CCCCC3)c12` ?
RESULT: 0

QUERY: Criterion: IC50 strictly below 2 µM. Is it met by `CCOC(=O)c1c(-c2ccccc2)oc2ccc(O)c(CCCNCc3ccoc3)c12` ?
RESULT: 0

QUERY: Criterion: IC50 strictly below 2 µM. Is it met by `CNC(=O)c1c(-c2ccc(F)cc2)oc2cc(O)cc(CCN[C@@H](Cc3ccco3)C(=O)O)c12` ?
RESULT: 0

QUERY: Criterion: IC50 strictly below 2 µM. Is it met by `CCOC(=O)c1c(-c2cc(F)c(O)c(F)c2)oc2ccc(O)c(CN3CCCCC3)c12` ?
RESULT: 1

QUERY: Criterion: IC50 strictly below 2 µM. Is it met by `CNC(=O)c1c(-c2ccccc2)oc2cccc(CN3CCCCC3)c12` ?
RESULT: 0

QUERY: Criterion: IC50 strictly below 2 µM. Is it met by `CNC(=O)c1c(-c2cccnc2)oc2ccc(OC)c(CN3CCCCC3)c12` ?
RESULT: 0

----------
Reported MIC by item:
- Test system: Mtb strain mc^27000
- EXPERIMENT SUMMARY: microbe, parasite or virus in culture
- Format: cell-based, Mycobacterium tuberculosis
- CONDITION LABEL: Mycobacterium tuberculosis, Mtb mc^27000, liquid medium, 96-well plates; read-out: MIC
Please give a number only; it is taken to be in µM.

Consider the worked cases shown below.
> print(dat)
                                   compound  endpoint.label  unit.info   val
1  CCOC(=O)c1c(-c2ccccc2)oc2ccc(OC)c(CN3CCCCC3)c12             MIC         µM  35.8
2  COC(=O)c1c(-c2ccccc2)oc2ccc(O)c(CCCN3CCCC3)c12             MIC         µM   1.8
3  CCOC(=O)/C=C/CC1CCN(CCCc2c(O)ccc3oc(-c4ccccc4)c(C(=O)OCC)c23)C1 (centres unmarked)             MIC         µM   2.7

QUERY: Request the reported MIC associated with `CNC(=O)c1c(-c2cccc(O)c2)oc2ccc(O)c(CN3CCCCC3)c12`
RESULT: 0.44

QUERY: Request the reported MIC associated with `CCOC(=O)c1c(-c2ccccc2)oc2ccc(O)c(CCCN3CCC(CO)CC3)c12`
RESULT: 6.1

----------
- Tested on: human dermal fibroblast (HDF) cells
- CONDITION LABEL: human, 48 h
ENDPOINT LABEL: Non-Toxic Concentration

Consider the worked cases shown below.
> print(dat)
                           substance.smiles    val
1  CCOC(=O)c1c(-c2ccc(OC)cc2)oc2ccc(O)c(CN3CCCCC3)c12  50 µM
2  CNC(=O)c1c(-c2ccc(O)nc2)oc2cc(O)cc(CN3CCCCC3)c12  50 µM

QUERY: Request the reported Non-Toxic Concentration associated with `OCc1c(-c2ccccc2)oc2ccc(O)c(CN3CCCCC3)c12`
RESULT: 25 µM

QUERY: Request the reported Non-Toxic Concentration associated with `CCOC(=O)c1c(-c2ccc(F)cc2)oc2cc(O)cc(CCNS(C)(=O)=O)c12`
RESULT: 25 µM

QUERY: Request the reported Non-Toxic Concentration associated with `O=C(c1c(-c2ccccc2)oc2ccc(O)c(CN3CCCCC3)c12)N1CCNCC1`
RESULT: 100 µM

QUERY: Request the reported Non-Toxic Concentration associated with `CCOC(=O)c1c(-c2ccc(O)nc2)oc2ccc(O)c(CN3CCCCC3)c12`
RESULT: 50 µM

QUERY: Request the reported Non-Toxic Concentration associated with `CCOC(=O)c1c(-c2ccc(C#N)cc2)oc2ccc(O)c(CN3CCCCC3)c12`
RESULT: 6.25 µM

QUERY: Request the reported Non-Toxic Concentration associated with `CNC(=O)c1c(-c2ccc(O)cc2)oc2cc(O)cc(CN3CCCCC3)c12`
RESULT: 50 µM
